Biological target: human B1R (Homo sapiens)
Construct: expressed in transfected cells; host or cells: CHO K1 cells (Chinese Hamster Ovary), stably transfected
Assay: Functional assay at bradykinin receptor 1 (B1R): Ca2+ fluorescence (Fluo-4) in FLIPR/Novostar, antagonist mode
Format: cell-based
Settings: test substance 10 µM; CHO K1 cells stably transfected with human B1R gene (hB1R-Zellen); agonist Lys-Des-Arg9-Bradykinin at EC80; % inhibition relative to maximal achievable inhibition; read-out: % Inhibierung (human B1R) bei 10 µM
Quantity Measured: inhibition at 10 µM (%)
One number for each entry, in %.

Below, 4 compounds whose answers are already recorded.
1) COc1cc(C)c(S(=O)(=O)Cc2noc(C(=O)N(C)C3CCN(c4ccncc4F)CC3)n2)c(C)c1; 98
2) COc1cc(C)c(S(=O)(=O)Cc2noc(CC(=O)NC3CCC(c4ccnc(OC)c4)CC3(C)C)n2)c(C)c1 (stereo not shown); 100
3) COCCN1CCC(NC(=O)Cc2nc(CS(=O)(=O)c3c(C)cccc3Cl)no2)C(C)(C)C1 (stereo not shown); 100
4) Cc1cccc(Cl)c1S(=O)(=O)Cc1noc(C(=O)NC2CCN(c3ccc(C(F)(F)F)cn3)CC2)n1; 54

Parameters: items (list). Returns: inhibition at 10 µM for each item.
1. COc1cc(C)c(S(=O)(=O)Cc2noc(CC(=O)NC3CCN(c4ccc(C(F)(F)F)cn4)CC3)n2)c(C)c1
2. COc1cc(C)c(S(=O)(=O)Cc2nnc(CC(=O)NC3CCN(C)CC3(C)C)o2)c(C)c1 (stereo not shown)
3. COc1cc(C)c(S(=O)(=O)Cc2noc(CC(=O)N(C)C3CCN(c4ccncc4)C(=O)C3)n2)c(C)c1 (stereo not shown)
4. COc1cc(C)c(S(=O)(=O)Cc2nnc(CC(=O)NC3CCN(C(C)=O)CC3(C)C)o2)c(C)c1 (stereo not shown)
5. COc1cc(C)c(S(=O)(=O)Cc2noc(C(=O)NC3CCC(N4CCCC4)CC3(C)C)n2)c(C)c1 (stereo not shown)
6. COc1cc(C)c(S(=O)(=O)Cc2c(C)nn(CC(=O)NC3CCNCC3(C)C)c2C)c(C)c1 (stereo not shown)
7. COCCN1CCC(NC(=O)Cc2nc(CS(=O)(=O)c3cc(C)c(Cl)cc3C)no2)C(C)(C)C1 (stereo not shown)

stdout:
91
100
100
81
100
98
80

For each listed entry, give its inhibition at 10 µM.
1. COc1cc(C)c(S(=O)(=O)Cc2noc(CC(=O)NC3CCNCC3(C)C)n2)c(C)c1 (stereo not shown)
2. CC(=O)N1CCC(NC(=O)Cc2nc(CS(=O)(=O)c3cc(C)c(Cl)cc3C)no2)C(C)(C)C1 (stereo not shown)
3. COc1cc(C)c(S(=O)(=O)Cc2nnc(CC(=O)NC3CCC(c4ccncc4)CC3(C)C)o2)c(C)c1 (stereo not shown)
4. COc1cc(C)c(S(=O)(=O)Cc2noc(CC(=O)N(C)CCC3CCN(c4ccncc4)CC3)n2)c(C)c1
5. Cc1cc(S(=O)(=O)Cc2noc(C(=O)N3CCC(N4CCN(C)CC4)CC3)n2)c(C)cc1Cl

stdout:
1. 100
2. 64
3. 100
4. 100
5. 99

----------
Target: human B1R (Homo sapiens)
Construct: expressed in transfected cells; host or cells: CHO K1 cells (Chinese Hamster Ovary), stably transfected
Experiment: Functional assay at bradykinin receptor 1 (B1R): Ca2+ fluorescence (Fluo-4) in FLIPR/Novostar, antagonist mode
Assay type: cell-based
Conditions: test substance 10 µM; CHO K1 cells stably transfected with human B1R gene (hB1R-Zellen); agonist Lys-Des-Arg9-Bradykinin at EC80; % inhibition relative to maximal achievable inhibition; read-out: % Inhibierung (human B1R) bei 10 µM
Quantity Measured: inhibition at 10 µM (%)
Numbers only, in %.

Study these solved cases before continuing.
1) CN(C)C1CCC(NC(=O)Cc2nc(CS(=O)(=O)c3cccc(Cl)c3Cl)no2)CC1 (stereo not shown); 63
2) COc1cc(C)c(S(=O)(=O)Cc2noc(CC(=O)N(C)C3CCN(Cc4ccc(OC)nc4)CC3)n2)c(C)c1; 100
3) COc1cc(C)c(S(=O)(=O)Cc2noc(CC(=O)N(C)C3CCN(C4CCOCC4)CC3)n2)c(C)c1; 100
4) COc1cc(C)c(S(=O)(=O)Cc2nc(CC(=O)NC3CCNCC3(C)C)no2)c(C)c1 (stereo not shown); 100
5) COc1cc(C)c(S(=O)(=O)Cc2nc(CC(=O)NC3CCNCC3)no2)c(C)c1; 100
6) COc1cc(C)c(S(=O)(=O)Cc2nc(CC(=O)N(C)C3CCNCC3(C)C)no2)c(C)c1 (stereo not shown); 100
7) Cc1cccc(Cl)c1S(=O)(=O)Cc1noc(C(=O)N2CCN(c3ccncc3)CC2)n1; 99
8) CC1(C)CC(N2CCCC2)CCC1NC(=O)Cc1nc(CS(=O)(=O)c2ccc(Cl)c(Cl)c2)no1 (stereo not shown); 100

Provide inhibition at 10 µM values for the following items, in order.
1. COc1cc(C)c(S(=O)(=O)Cc2noc(CC(=O)N(C)C3CCN(c4ccnc(N(C)C)c4)CC3)n2)c(C)c1
2. COc1cc(C)c(S(=O)(=O)Cc2noc(CC(=O)N(C)C3CCN(C(=O)c4ccncc4)CC3)n2)c(C)c1
3. COc1cc(C)c(S(=O)(=O)Cc2noc(CC(=O)N(C)C3CCN(c4cc(C)nc(C)n4)CC3)n2)c(C)c1
4. COc1cc(C)c(S(=O)(=O)Cc2noc(CC(=O)N(C)C3CCN(Cc4ccnc(N5CCCC5)c4)CC3)n2)c(C)c1
5. COc1cc(C)c(S(=O)(=O)Cc2nc(CC(=O)NC3CCN(C(C)=O)CC3(C)C)no2)c(C)c1 (stereo not shown)
6. COc1cc(C)c(S(=O)(=O)Cc2cc(C)n(CC(=O)NC3CCC(N4CCCC4)CC3)n2)c(C)c1 (stereo not shown)
7. COc1cc(C)c(S(=O)(=O)Cc2nnc(CC(=O)NC3CCC(N4CCCC4)CC3(C)C)o2)c(C)c1 (stereo not shown)
8. COc1cc(C)c(S(=O)(=O)Cc2c(C)nn(CC(=O)NC3CCN(C(C)=O)CC3(C)C)c2C)c(C)c1 (stereo not shown)

stdout:
100
98
99
100
90
98
100
44

----------
Molecular target: human B1R (Homo sapiens)
Construct: expressed in transfected cells; host or cells: CHO K1 cells (Chinese Hamster Ovary), stably transfected
Assay: Functional assay at bradykinin receptor 1 (B1R): Ca2+ fluorescence (Fluo-4) in FLIPR/Novostar, antagonist mode
Type: cell-based
Conditions: test substance 10 µM; CHO K1 cells stably transfected with human B1R gene (hB1R-Zellen); agonist Lys-Des-Arg9-Bradykinin at EC80; % inhibition relative to maximal achievable inhibition; read-out: % Inhibierung (human B1R) bei 10 µM
Quantity Measured: inhibition at 10 µM (%)
Answers are plain numbers, in %.

In the examples that follow, each entry is paired with its recorded inhibition at 10 µM.
1) Cc1cccc(Cl)c1S(=O)(=O)Cc1noc(C(=O)N2CCC3(CCN(C)C3)C2)n1 (centres unmarked); 82
2) COc1cc(C)c(S(=O)(=O)Cc2noc(C(=O)N3CCC4(CC3)CCN(c3ccncc3)CC4)n2)c(C)c1; 100
3) Cc1cc(S(=O)(=O)Cc2noc(CC(=O)NC3CCC(N4CCCC4)CC3)n2)c(C)cc1Cl (centres unmarked); 93
4) Cc1cc(S(=O)(=O)Cc2noc(C(=O)N3CCN(c4ccncc4)CC3)n2)c(C)cc1Cl; 100

stdin: // returns reported inhibition at 10 µM for input COc1cc(C)c(S(=O)(=O)Cc2noc(CC(=O)NC3CCOCC3(C)C)n2)c(C)c1 (centres unmarked)
stdout: 98

----------
Biological target: human B1R (Homo sapiens)
Construct: expressed in transfected cells; host or cells: CHO K1 cells (Chinese Hamster Ovary), stably transfected
Sequence (P46663 1-353): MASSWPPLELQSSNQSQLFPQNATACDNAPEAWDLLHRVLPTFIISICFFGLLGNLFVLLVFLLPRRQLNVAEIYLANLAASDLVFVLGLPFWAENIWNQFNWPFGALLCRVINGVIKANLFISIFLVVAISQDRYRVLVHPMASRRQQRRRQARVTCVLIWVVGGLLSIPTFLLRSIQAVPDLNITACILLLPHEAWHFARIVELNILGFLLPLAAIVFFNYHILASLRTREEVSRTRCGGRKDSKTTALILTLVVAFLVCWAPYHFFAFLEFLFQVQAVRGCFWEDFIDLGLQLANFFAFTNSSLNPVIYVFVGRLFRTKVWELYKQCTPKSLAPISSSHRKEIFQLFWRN
Assay: Functional assay at bradykinin receptor 1 (B1R): Ca2+ fluorescence (Fluo-4) in FLIPR/Novostar, antagonist mode
Assay type: cell-based
Conditions: test substance 10 µM; CHO K1 cells stably transfected with human B1R gene (hB1R-Zellen); agonist Lys-Des-Arg9-Bradykinin at EC80; % inhibition relative to maximal achievable inhibition; read-out: % Inhibierung (human B1R) bei 10 µM
Cut-off 90% on inhibition at 10 µM, inclusive. At or above means class 1; below means class 0.

The following molecules have reported results that may help.
1) Cc1cccc(Cl)c1S(=O)(=O)Cc1noc(C(=O)N2C3CCC2CC(Oc2ccncc2)C3)n1 (stereo not shown); class 1
2) Cc1cc(S(=O)(=O)Cc2noc(CC(=O)N(C)C3CCNCC3(C)C)n2)c(C)cc1Cl (stereo not shown); class 0
3) COc1cc(C)c(S(=O)(=O)Cc2cn(CC(=O)N3CCC(CN4CCN(C)CC4)C3)nn2)c(C)c1 (stereo not shown); class 1
4) Cc1cccc(Cl)c1S(=O)(=O)Cc1noc(CC(=O)NC2CCC(N3CCCC3)CC2)n1 (stereo not shown); class 1
5) Cc1cccc(Cl)c1S(=O)(=O)Cc1noc(C(=O)N2CCC(N3CCN(C)CC3)CC2)n1; class 1

stdin: Please check the record COc1cc(C)c(S(=O)(=O)Cc2noc(C(=O)NC3CCC(c4ccncc4)CC3)n2)c(C)c1 (stereo not shown) and state if its inhibition at 10 µM is at or above 90%.
stdout: class 1

stdin: hey, is inhibition at 10 µM for this one >= 90%? Cc1cccc(Cl)c1S(=O)(=O)Cc1noc(CC(=O)NC2CCNCC2)n1
stdout: class 0

stdin: For this molecule, is measured inhibition at 10 µM 90% or higher? Cc1cccc(Cl)c1S(=O)(=O)Cc1noc(CC(=O)N(C)C2CCNCC2(C)C)n1 (stereo not shown)
stdout: class 0

stdin: Entry COc1cc(C)c(S(=O)(=O)Cc2cn(CC(=O)N(C)[C@H]3CCC[C@@H](N4CCN(C)CC4)C3)nn2)c(C)c1 : is its inhibition at 10 µM no less than 90%?
stdout: class 1
